Test system: A375 cells (malignant melanoma)
Protocol: Inhibition of cancer cell proliferation, A375 (CellTiterGlo, 72 hours)
Format: cell-based
Condition Info: Homo sapiens, A-375
Measure Name: GI50

Examples with answers:
Molecule | GI50
C=CC(=O)Nc1cc(OC)ccc1Nc1nc(Nc2cc(OC)ncc2C)ncc1Cl [Compound I-242] | < 100 nM
C=CC(=O)Nc1ccccc1Nc1nc(Nc2cc(OC)nc(N3CCCCC3)c2)ncc1C(F)(F)F [Compound I-282] | < 100 nM
C=CC(=O)Nc1cc(C)ccc1Nc1nc(Nc2cc(OC)nc(N(C)CCOC)c2)ncc1C(F)(F)F [Compound I-336] | < 100 nM

Q: // query GI50 value for entry C=CC(=O)Nc1ccccc1Nc1nc(Nc2cc(C(=O)NC)c(F)cc2C)ncc1Cl [Compound I-231]
Result: < 100 nM

Q: // query GI50 value for entry C=CC(=O)Nc1cc(OC)ccc1Nc1nc(Nc2cc(C(N)=O)ccc2C)ncc1Cl [Compound I-237]
Result: < 100 nM

Q: // query GI50 value for entry C=CC(=O)Nc1cc(C)ccc1Nc1nc(Nc2nc(OC)ncc2F)ncc1C(F)(F)F [Compound I-357]
Result: 101 to 500 nM

Q: // query GI50 value for entry C=CS(=O)(=O)Nc1cc(C)ccc1Nc1nc(Nc2cc(OC)ncc2C)ncc1C(F)(F)F [Compound I-333]
Result: > 1000 nM

Q: // query GI50 value for entry C=CC(=O)Nc1cc(C)ccc1Nc1nc(N[C@H]2CCCN(C(=O)CO)C2)ncc1C(F)(F)F [Compound I-20]
Result: < 100 nM

These entries and their values trace back to patent US9561228B2.
